- system name: T1, recombinant human TRAIL R1 (DR4)/Fc chimera (human, UniProt O00220 24-239)
- T1 construct: bought (R&D Systems); not shown: Fc of the bought chimera (R&D Systems)
- T1 sequence: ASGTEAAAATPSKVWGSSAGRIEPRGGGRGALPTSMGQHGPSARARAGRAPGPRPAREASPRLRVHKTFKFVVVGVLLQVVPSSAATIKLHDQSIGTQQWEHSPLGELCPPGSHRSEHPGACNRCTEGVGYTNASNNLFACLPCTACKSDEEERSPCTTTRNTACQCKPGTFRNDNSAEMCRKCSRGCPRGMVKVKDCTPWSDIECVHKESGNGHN
- assay notes: SPR (Biacore), ATRIMER
measured metric: kon (M⁻¹ s⁻¹)
Quick reminder: number only, in M⁻¹ s⁻¹, skip the unit.

Query: Can you look up the measured kon of 29p61P1E11 (designed binder, ATRIMER; also called 029-61.1E11) EPPTQKPKKIVNAKKDVVNTKMFEELKSRLDTLAQEVALLKEQQALQTVCLKGTKVHMKCFLAFTQTKTFHEASEDCISRGGTLSTPQTGSENDALYEYLRQSVGNEAEIWLGLNGWLEGVGWVDMTGARIAYKNWETEITAQPDGGWPFSNENCAVLSGAANGKWFDKRCRDQLPYICQFGIV for me?
Reply: 93800

Query: What about this binder? 119p94P1G7 (designed binder, ATRIMER from pANA19) EPPTQKPKKIVNAKKDVVNTKMFEELKSRLDTLAQEVALLKEQQALQTVCLKGTKVHMKCFLAFTQTKTFHEASEDCISRGGTLSTPQTGSENDALYEYLRQSVGNEAEIWLGLNGWLEGVGWVDMTGARIAYKNWGWSARVQPDGGWPFSNENCAVLSGAANGKWFDKRCRDQLPYICQFGIV
Reply: 349000

Query: What about this binder? 119p94P1B5 (designed binder, ATRIMER from pANA19) EPPTQKPKKIVNAKKDVVNTKMFEELKSRLDTLAQEVALLKEQQALQTVCLKGTKVHMKCFLAFTQTKTFHEASEDCISRGGTLSTPQTGSENDALYEYLRQSVGNEAEIWLGLNGWLEGVGWVDMTGARIAYKNWARHINEQPDGGWPFSNENCAVLSGAANGKWFDKRCRDQLPYICQFGIV
Reply: 360000

Query: What about this binder? 119p83P1H4 (designed binder, ATRIMER from pANA19) EPPTQKPKKIVNAKKDVVNTKMFEELKSRLDTLAQEVALLKEQQALQTVCLKGTKVHMKCFLAFTQTKTFHEASEDCISRGGTLSTPQTGSENDALYEYLRQSVGNEAEIWLGLNGWLEGVGWVDMTGARIAYKNWSKVRLEQPDGGWPFSNENCAVLSGAANGKWFDKRCRDQLPYICQFGIV
Reply: 138000
